- assayedTarget: T1, human Claudin18.2 (human)
- T1 construct: also called CLDN18.2
- runDescription: FACS, Claudin18.2-HEK293 cells
readoutName: EC50 (µg/mL)
One number for each entry, in µg/mL.

Provide EC50 values for the following items, in order.
1. humanized 207F8G5-VH1.1 + VL1.1 (antibody, human IgG1, kappa, V domains shown, humanized, human IgG1/kappa constant regions) VH: QVQLVQSGAEVKKPGASVKVSCKASGFTFTSYNIHWVKQAPGQGLEWMGYISPGNGGSNYNLKFKDRVTMTSDTSISTAYMELSRLRSDDTAVYFCATGRGFAYWGQGTLVTVSS VL: DIVMTQSPDSLAVSPGERATMSCKSSQSLFNSGNQKNYLIWYQQKPGQPPKLLIYRASTRDSGVPDRFSGSGSGTDFTLTISSLQAEDVAVYYCQNDYSYPLTFGGGTKLEIKR
2. chimeric 246B5F2 (antibody, human IgG1, kappa, V domains shown, chimeric, human IgG1/kappa constant regions; also called 246B5F2-Chimeric) VH: EVMLVESGGGLMKPGGSLKLSCAASEFTFSNYAMSWVRQTPEKRLEWVATISSGRSSTYYPDSVKGRFTISRDNAKNTLYLQMSSLRSEDTAMYYCAGLGRGNAMEYWGQGTSVTVSS VL: DIVMTQSPSSLTVTAGEKVTLSCKSSQSLLNSGNQKNYLTWYQQKPGQPPKLLIYWASTRESGVPDRFTGSGSGTDFILTINSVQAEDLAVYYCQNAYSYPFTFGSGTKLEIKR
3. humanized 410H6H3-VH1.2 + VL1.1 (antibody, human IgG1, kappa, V domains shown, humanized, human IgG1/kappa constant regions) VH: EVQLVESGGGLVQPGGSRRLSCAASGFTFSSSGMHWVRQAPGKGLEWVSYISSGSNTIYYADTLKGRFTISRDNAKNTLFLQMNSLRAEDTAVYYCARIYYGNSFVYWGQGTLVTVSS VL: DIVMTQSPDSLAVSLGERATMSCKSSQSLLNSGNQKNYLTWYQQKPGQPPKMLIYWASTRESGVPDRFSGSGSGTDFTLTISSLQAEDVAVYYCQNNYYYPLTFGQGTKLEIKR

1: 0.168; 2: 0.192; 3: 0.555
